Biological target: KRAS4B G12D (Homo sapiens, UniProt P01116, G12D)
Construct: HiBit; expressed in transfected cells; host or cells: GP5d cells (ECACC 95090715), stably transduced with lentivirus, CMV promoter
Sequence (P01116 1-188 isoform P01116-2 G12D): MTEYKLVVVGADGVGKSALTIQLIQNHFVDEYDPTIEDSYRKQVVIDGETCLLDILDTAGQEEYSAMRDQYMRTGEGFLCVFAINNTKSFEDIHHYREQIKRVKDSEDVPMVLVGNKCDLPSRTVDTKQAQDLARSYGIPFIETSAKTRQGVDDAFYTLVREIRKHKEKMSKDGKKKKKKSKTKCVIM
Test: HiBit KRAS4B mutant spectrum degradation assay, KRAS4B G12D in GP5d cells (18 h)
Type: cell-based
Settings: KRAS mutation G12D
Text: The therapeutically relevant mutant KRAS constructs (WT, G12C, G12D, G12V, G13D) were obtained by site directed mutagenesis using a KRAS4B WT cDNA construct as a template. GP5d cells (ECACC Cat. No. 95090715) were transduced with lentiviral vectors expressing mutant KRAS4B cDNA under control of a CMV promoter. Stably transduced cells were selected using a neomycin selectable marker encoded on the construct. […]
Answer each item with its documented Dmax at 18 h.
Please give a number only; it is taken to be in % Ctrl..

Ask | Please look up its Dmax at 18 h: Cc1ncsc1-c1ccc([C@@H](NC(=O)[C@@H]2C[C@@H](O)CN2C(=O)[C@H](C(C)C)n2cc(OCCCN3CCCN(c4nccc(-c5noc([C@@]6(C)CCCc7sc(N)c(C#N)c76)n5)n4)[C@@H](C)C3)nn2)[C@H](O)C(C)C)cc1 (single isomer, unassigned) [I-43]
Reply | 95.8

Ask | Would you mind doing Cc1ncsc1-c1ccc([C@H](CO)NC(=O)[C@@H]2C[C@@H](O)CN2C(=O)[C@H](C(C)C)n2cc(OCCCCN3CCCN(c4nccc(-c5noc([C@@]6(C)CCCc7sc(N)c(C#N)c76)n5)n4)[C@@H](C)C3)nn2)cc1 [I-29] as well?
Reply | 96.0

Ask | Same question, Cc1ncsc1-c1ccc(CNC(=O)[C@@H]2C[C@@H](O)CN2C(=O)[C@@H](NC(=O)CCCCCN2CCCN(c3nccc(-c4noc([C@@]5(C)CCCc6sc(N)c(C#N)c65)n4)n3)[C@@H](C)C2)C(C)(C)C)cc1 [I-47] this time
Reply | 94

Ask | Please do the same for Cc1ncsc1-c1ccc(CNC(=O)[C@@H]2C[C@@H](O)CN2C(=O)[C@@H](c2cc(OCCCCN3CCCN(c4nccc(-c5noc([C@@]6(C)CCCc7sc(N)c(C#N)c76)n5)n4)[C@@H](C)C3)no2)C(C)C)cc1 (single isomer, unassigned) [I-27] as well.
Reply | 95

====

Provide the reported Dmax 18 h of each item.
Target: KRAS(G12D) (Homo sapiens, UniProt P01116, G12D)
Construct: introduced immediately downstream of the initiating Methionine codon of the endogenous KRAS locus; host or cells: GP5d-HiBit-KRAS(G12D), a CRISPR knock-in at the endogenous locus
Sequence (P01116 1-188 isoform P01116-2 G12D): as above
Assay: HiBit degradation assay in GP5d-HiBit-KRAS(G12D) cells (18 h; DC50, Dmax)
Type: cell-based
Supply the numeric figure in % Ctrl, leaving out any unit text.

Ask | What value of Dmax 18 h has been reported for the following molecule? Cc1ncsc1-c1ccc([C@H](CO)NC(=O)[C@@H]2C[C@@H](O)CN2C(=O)[C@H](C(C)C)n2cc(OCCCC(C)N3CCCN(c4nccc(-c5noc([C@@]6(C)CCCc7sc(N)c(C#N)c76)n5)n4)[C@@H](C)C3)nn2)cc1 (stereo partly drawn)
Reply | 94

Ask | Then what about the molecule Cc1ncsc1-c1ccc(CNC(=O)[C@@H]2C[C@@H](O)CN2C(=O)C(c2cc(OCCCN3CCCN(c4ccnc(-c5noc([C@@]6(C)CCCc7sc(N)c(C#N)c76)n5)n4)[C@@H](C)C3)no2)C(C)C)cc1 (stereo partly drawn) ?
Reply | 90

Ask | Then this molecule: CC(C)C(C(=O)N1C[C@H](O)C[C@H]1C(=O)NCc1ccc(Cl)cc1)c1cc(OCCCCN2CCCN(c3nccc(-c4noc([C@@]5(C)CCCc6sc(N)c(C#N)c65)n4)n3)[C@@H](C)C2)no1 (stereo partly drawn)
Reply | 89

src = patent US20250145608A1
